normalized growth overview
Protocol details: chemical genetic growth profiling, strain panel (AID 1159580);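 note: tested at 20 µM; growth read once vehicle control cultures reached saturation at 30 °C; 1 = growth at the plate median or of vehicle wells; lower values mean less growth of the strain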
Test conditions: S. cerevisiae deletion strains, growth OD, locus YML124C, strain tub3, hits give low values
The whole screen tested about 5,500 compounds, of which about 2,000 (36%) were called active. Not shown: some 18% with an inconclusive outcome. This is one part of the list.
// print number alone

Sample records with normalized growth:
COc1ccc2c(c1C(C)C)CCC1C(C)(C)C(=O)CCC21C (centres undefined) : 0.961
CCN1C[C@]2(C)CC[C@H](OC)[C@]34C2[C@H](O)[C@]2(OCO[C@@]25C[C@H](OC)[C@H]2C[C@]3(O)C5[C@H]2O)C14 : 1
CN1C(C)(C)CCCC1(C)C : 1

Let's switch to this compound now.
INPUT: # query: normalized growth of entry `O=C(O)C1=C[C@@H](O)[C@@H](O)[C@H](O)C1`
OUTPUT: 1

---

Protocol details: chemical genetic growth profiling, strain panel (AID 1159580)
Test conditions: S. cerevisiae deletion strains, growth OD, locus YLR384C, strain iki3, hits give low values
Among all 5,500 compounds or so, about 2,000 (36%) were called active. Roughly 18% stayed inconclusive and do not appear here. The list shows a part of the results.
Here the recorded normalized growth is given for each entry.
Reply briefly: the number, and no unit.

Worked cases, answers included:
CC(=O)OC(C)C[N+](C)(C)C (stereo not given) : 0.996
CCCCOc1cc(C(=O)NCCN(CC)CC)c2ccccc2n1 : 0.959
C[C@H]1O[C@H](OC2[C@@H](O)[C@@H](O)C(O)[C@H](O)[C@H]2O)[C@@H](N)C[C@@H]1N=C(N)C(=O)O (stereo not given in full) : 1
O=c1cc(-c2ccc(O)cc2)oc2cc(O[C@@H]3O[C@H](CO)[C@@H](O)[C@H](O)[C@H]3O)cc(O)c12 : 1.01
C[C@@H]([C@H](O)c1ccccc1)N(C)C : 1.02

INPUT: Which value of normalized growth has been reported for CC(C)c1c(O)ccc2c1CCC1C(C)(C)CCC[C@]21C (stereo not given in full) in the records?
OUTPUT: 1.01

INPUT: Entry to check: CC(=O)[C@@]1(O)CCC2C3C[C@H](C)C4=CC(=O)C=CC4(C)[C@@]3(F)[C@@H](O)C[C@@]21C (stereo not given in full)
OUTPUT: 0.981

INPUT: Same question, `COc1ccc(-c2oc3cc(O[C@H]4O[C@H](CO)[C@@H](O)[C@H](O)[C@H]4O)c(OC)c(O)c3c(=O)c2OC)cc1O` this time
OUTPUT: 1.01

INPUT: CNC(C)C(O)c1ccccc1 (stereo not given) ?
OUTPUT: 1.02

INPUT: Another molecule: CC(C)(C)NCC(O)c1cc(O)cc(O)c1 (stereo not given)
OUTPUT: 0.988

INPUT: Same read-out for `CCOCN(C(=O)CCl)c1c(C)cccc1CC` ?
OUTPUT: 0.98

---

Form field: normalized growth (one value per entry).
Protocol details: chemical genetic growth profiling, strain panel (AID 1159580)
Test conditions: S. cerevisiae deletion strains, growth OD, locus YGL248W, strain PDE1, hits give low values
Hit rate of the full screen: of about 5,500 compounds, about 2,000 (36%) were called active. Not shown: some 18% with an inconclusive outcome. The list shows a part of the results.
Give the figure by itself; no unit, no explanation.

For orientation, consider the following solved cases.
Cc1[nH]ccc2c1[nH]c1cc(=O)ccc12 : 1.02
COc1cccc2c(C)cc(=O)[nH]c12 : 0.919

INPUT: I'd like to know its normalized growth. The compound in question is `O=c1c(O)c(-c2ccc(O)cc2O)oc2cc(O)cc(O)c12`
OUTPUT: 0.966

INPUT: Item: `O=c1c(O)c(-c2ccc(O)c(O)c2)oc2cc(O)cc(O)c12`
OUTPUT: 0.928

INPUT: Next entry: `COc1c(C(C)C)oc2cc3oc(=O)ccc3cc12`
OUTPUT: 0.869

INPUT: Also need `CC(C)[N+](C)(CCC(C(N)=O)(c1ccccc1)c1ccccc1)C(C)C` , thanks.
OUTPUT: 1

INPUT: Another compound to check: CCCCCCCCCCCCCCCCCC(=O)OC(CC(=O)O)C[N+](C)(C)C (configuration not stated)
OUTPUT: 0.153

---

Protocol details: chemical genetic growth profiling, strain panel (AID 1159580)
Test conditions: S. cerevisiae deletion strains, growth OD, locus YLR102C, strain apc9, hits give low values
Screen size: about 5,500 compounds; about 2,000 (36%) were called active. About 18% were inconclusive and are not listed. Some of the results follow.
Overview of reported normalized growth across a group of compounds:
Form: value (number only, do not type unit).

CC(=O)Oc1ccc2c(c1C(C)C)CCC1C(C)(C)CCC[C@]21C (some centres not stated) : 0.999
CN[C@@H]1C(O)[C@@H](O[C@@H]2[C@@H](O)[C@H](O[C@H]3OC(CN)=CC[C@H]3N)[C@@H](N)C[C@H]2N)OC[C@]1(C)O (some centres not stated) : 0.993
CC(C)c1c(O)ccc2c1CCC1[C@@](C)(C=O)CCC[C@]21C (some centres not stated) : 0.432
CC(=O)Oc1ccc2c(c1OC(C)=O)OCC1(O)Cc3c(cc(OC(C)=O)c(OC(C)=O)c3OC(C)=O)C21 (configuration not stated) : 0.981
CC(C)[N+](C)(CCC(C(N)=O)(c1ccccc1)c1ccccc1)C(C)C : 0.999
CCCCCc1c2c(cc(O)c1C(=O)O)OC(=O)c1c(cc(OC)cc1C(=O)CCCC)O2 : 0.979

Okay, now this compound:
INPUT: If you can, please state the reported normalized growth value of COC(=O)[C@]1(C)CCC[C@]2(C)c3ccc(C(C)C)cc3C(=O)CC12 (some centres not stated) .
OUTPUT: 1.01

---

Protocol details: chemical genetic growth profiling, strain panel (AID 1159580);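 note: tested at 20 µM; growth read once vehicle control cultures reached saturation at 30 °C; 1 = growth at the plate median or of vehicle wells; lower values mean less growth of the strain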
Test conditions: S. cerevisiae deletion strains, growth OD, locus YDR502C, strain sam2
Hit rate of the full screen: of about 5,500 compounds, about 2,000 (36%) were called active. Roughly 18% stayed inconclusive and do not appear here. Rule as the data show it: active = normalized growth mostly below about 0.91 (no sharp cut-off); inconclusive = no clear call, values can overlap the other calls; inactive = mostly above about 0.92. The list shows a part of the results.
// one of 1 (yes) (active), 0 (no) (inactive), no free text

Sample answers from the record:
CC(C)[N+](C)(CCC(C(N)=O)(c1ccccc1)c1ccccc1)C(C)C : 0 (no)
Cc1cc(C2CCCCC2)n(O)c(=O)c1 : 1 (yes)
NC(=O)NCC(N)C(=O)O (centres undefined) : 0 (no)
NS(=O)(=O)c1cc(C2(O)NC(=O)c3ccccc32)ccc1Cl (centres undefined) : 0 (no)
CC(C)(C)NCC(O)c1cc(Cl)c(N)c(Cl)c1 (centres undefined) : 0 (no)
CC(=O)OC1CN2CCC1CC2 (centres undefined) : 0 (no)

INPUT: Please state the recorded outcome for this molecule: `COc1cc2occc2c2oc(=O)ccc12`
OUTPUT: 0 (no)

---

Protocol details: chemical genetic growth profiling, strain panel (AID 1159580);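 note: tested at 20 µM; growth read once vehicle control cultures reached saturation at 30 °C; 1 = growth at the plate median or of vehicle wells; lower values mean less growth of the strain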
Test conditions: S. cerevisiae deletion strains, growth OD, locus YNL298W, strain CLA4, hits give low values
Among all 5,500 compounds or so, about 2,000 (36%) were called active. Roughly 18% stayed inconclusive and do not appear here. The list shows a part of the results.
Lab note - cut at 1 for normalized growth: Met if strictly below, Not met if not.

Recorded results for 3 compounds are shown here.
COc1c(C(C)C)oc2cc3oc(=O)ccc3cc12 : Met
C[C@@H]1CC[C@@]2(NC1)O[C@H]1C[C@H]3C4CC=C5C[C@@H](O)CC[C@]5(C)C4CC[C@]3(C)C1[C@@H]2C (some centres undefined) : Met
CC1CC[C@@]2(OC1)O[C@H]1CC3C4CC[C@@H]5C[C@@H](O)CC[C@]5(C)C4CC[C@]3(C)[C@H]1[C@@H]2C (some centres undefined) : Not met

INPUT: Threshold test, normalized growth < 1: COc1ccc2c(c1)CCC1C2CC[C@@]2(C)C1CC[C@@H]2O (some centres undefined)
OUTPUT: Met

INPUT: Also `COc1ccc(-c2oc3cc(O[C@H]4O[C@H](CO)[C@@H](O)[C@H](O)[C@H]4O)c(OC)c(O)c3c(=O)c2OC)cc1O` , if possible.
OUTPUT: Met

---

Protocol details: chemical genetic growth profiling, strain panel (AID 1159580);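 note: tested at 20 µM; growth read once vehicle control cultures reached saturation at 30 °C; 1 = growth at the plate median or of vehicle wells; lower values mean less growth of the strain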
Test conditions: S. cerevisiae deletion strains, growth OD, locus YNL250W, strain rad50, hits give low values
About 2,000 (36%) of roughly 5,500 compounds were called active. Inconclusive results (about 18%) are left out. The list shows a part of the results.
Listed below: normalized growth values for each entry.
Please reply with the value in numeric form only.

CC1(C)C2CC(=O)[C@]3(C)C(CC[C@@]4(C)[C@H](c5ccoc5)OC(=O)[C@H]5O[C@]543)[C@@]2(C)C(=O)C[C@H]1O (stereo partly drawn) : 1.02

INPUT: Suppose we examine the compound `COc1cc(OC)c2c(=O)c(O)c(-c3ccc(OC)c(OC)c3)oc2c1` ; what normalized growth value has been reported?
OUTPUT: 1.01

INPUT: Proceed to OCC(O)C(O)C(O)C(O)C(O)CO (stereo not drawn)
OUTPUT: 0.987
